Hi there, I'd appreciate the recorded protein stability index for every entry that follows.
B1: SEC22B (parent)
chain: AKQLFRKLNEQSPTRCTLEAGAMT

Variants of: B1
test: protein stability index of a GFP-peptide fusion (GPS, HEK-293T) (PSI 1-6); higher = more stable;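 also: lentivirally expressed fusions sorted by FACS into six bins by GFP to DsRed ratio, PSI derived from sequencing read proportions per bin multiplied by bin number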
setup-conditions: c terminus: a fixed tail appended
Give the figure by itself; no unit, no explanation.

What measured protein stability index goes with AKQLFRKLNEQSRTRCTLEAGAMT [P13R] ?
2.73

Given the variant AKQLFRKLNEQSPFRCTLEAGAMT [T14F] , what is its reported protein stability index?
1.63

Please look up its protein stability index: AHQLFRKLNEQSPTRCTLEAGAMT [K2H]
1.94

// returns reported protein stability index for input AKQLFRKLNEQSETRCTLEAGAMT [P13E]
2.81

For the variant shown here, AKQLFRKLNEQSPTRCTLEAGYMT [A22Y] , give the reported protein stability index.
2.41

GET /values?readout=protein stability index&item= AKQLFRKLNEQSPTRCGLEAGAMT [T17G]
1.69

Which protein stability index is listed for AKQLFRKLNMQSPTRCTLEAGAMT [E10M] ?
2.72

Entry under review: ATQLFRKLNEQSPTRCTLEAGAMT [K2T] . Reported protein stability index?
1.83

Find the recorded protein stability index belonging to AKQHFRKLNEQSPTRCTLEAGAMT [L4H] and report it.
3.12

Can you look up the measured protein stability index of AKQLFMKLNEQSPTRCTLEAGAMT [R6M] for me?
1.75

Please report the recorded protein stability index for AKQLFRKLNQQSPTRCTLEAGAMT [E10Q] .
1.54

Name the reported protein stability index value associated with the variant AKQLFRKLNEQSPTRCTLEAGALT [M23L]
2.47

Which protein stability index is reported for this variant? AKQLFRKLNEQSTTRCTLEAGAMT [P13T]
2.14

The reported measurements were obtained from the supplement of paper PMC10567573.
